B1: SLC25A39 (parent)
chain: LTSDLYAPMVAGALARLGTVTVIS

- Variants of: B1
- Experimental Details: protein stability index of a GFP-peptide fusion (GPS, HEK-293T) (PSI 1-6); higher = more stable;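 further: lentivirally expressed fusions sorted by FACS into six bins by GFP to DsRed ratio, PSI derived from sequencing read proportions per bin multiplied by bin number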
- Cond: c terminus: a fixed tail appended
The following variants are listed with their measured protein stability index values.
Respond with the number and no other words.

Before answering, review these 10 worked examples.
Y6V
2.13
Y6N
1.34
M9N
1.01
M9C
1.65
A11Q
1.65
A13D
1.74
T21Q
2.95
V20T
1.02
T2E
2.15
L5A
2.14

Data request: Endpoint output: protein stability index of `L1G` . Value?
Data returned: 2.72

Data request: Ok, now `V20I`
Data returned: 3.37

Data request: Try the variant `Y6Q`
Data returned: 2.01

Data request: // next record `S3N`
Data returned: 1.56

Data request: Same for `A15L`
Data returned: 1.45

Data request: Then `A11Y` ?
Data returned: 4.45

Cited source for all entries: the supplement of paper PMC10567573
